tested on: MST1; construct: gene STK4; conditions: concentration: 1 μM, replicates: in singlicate; n = 1;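 also: KINOMEscan kinase panel screen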
Known %Inh of a selection of compounds

Use the examples below as a reference point.
[
  {
    "Compound": "C[C@@H](Oc1cc(-n2cnc3cc(-c4ccnc(NCCS(C)(=O)=O)c4)ccc32)sc1C(N)=O)c1ccccc1Cl [GSK907232]",
    "Assay System": "MST1",
    "%Inh": "64%"
  },
  {
    "Compound": "Cc1cccc(NC(=O)Nc2ccc(Oc3ncnc4ccn(C)c34)cc2)c1",
    "Assay System": "MST1",
    "%Inh": "14%"
  }
]

Task: Consider the compound CN(C)S(=O)(=O)c1cc(-c2ccc3nccc(-c4cccc(S(N)(=O)=O)c4)c3c2)cnc1N [GSK1669921] and give its measured %Inh.
Result: 20%

Task: Please report the recorded %Inh for COc1cc(Nc2nccc(-c3c(-c4cccc(NC(=O)c5c(F)cccc5F)c4)nn4ncccc34)n2)cc(OC)c1OC [GSK327238] .
Result: 96.6%

Task: Report %Inh for `O=C(Nc1cccc(Oc2ccc3nc(NC(=O)C4CC4)cn3n2)c1)c1ccccc1C(F)(F)F` please.
Result: 10%

Task: For the compound `COc1cc2c(cc1OCCN1CCNCC1)ncc1c3ccc(C#N)cc3[nH]c21` , what %Inh is on record?
Result: 0%

Task: For the compound COc1ccc(Nc2nccc(N3CCC(NC(=O)Nc4cccc(OC)c4)C3)n2)cc1 (centres unmarked) [GSK1379742] , what %Inh is on record?
Result: 0%

Task: Look at this compound and give its reported %Inh. `COCCOCCOc1cc2ncc3c4ccc(C#N)cc4[nH]c3c2cc1OC`
Result: 12%

Task: Any idea what its %Inh is? The compound is Cn1cc(-c2ccc3c(c2)CCN3C(=O)Cc2cccc(Cl)c2)c2c(N)ncnc21 [GSK2606590]
Result: 97.2%

Task: %Inh lookup needed for Nc1ncc(-c2ccc3nccc(-c4ccncc4)c3c2)cc1S(=O)(=O)N1CCOCC1 [GSK1627798] , thanks.
Result: 7%

Task: # %Inh lookup, item CCn1c(-c2nonc2N)nc2c(C#CC(C)(C)O)nc(OC[C@H](N)c3ccccc3)cc21 [GSK943949]
Result: 0%

Task: # %Inh lookup, item `COc1cccc(C(=O)Nc2cccc(Oc3ccc4nc(NC(=O)C5CC5)cn4n3)c2)c1`
Result: 9%

Task: Recorded %Inh for c1ccc(-c2cnc3nccnn23)cc1 [AH20685] , please?
Result: 5%

Task: Could you tell me which %Inh is on file for O=C(Nc1cccc(-c2nn3ccccc3c2-c2ccnc(Nc3cccc(C(F)(F)F)c3)n2)c1)c1c(F)cccc1F [GSK292658] ?
Result: 11%

Task: What value of %Inh has been reported for the following compound? NCCCC(NC(=O)c1cc(Br)c(-c2ccnc3[nH]ccc23)s1)c1ccccc1.O=C(O)C(F)(F)F.O=C(O)C(F)(F)F (centres unmarked) [GSK1287544]
Result: 0%

Task: Consider the compound shown here: O=C(Nc1cccc(-c2nn3ncccc3c2-c2ccnc(Nc3ccccc3)n2)c1)c1c(F)cccc1F [GSK198271] What is its recorded %Inh?
Result: 47%

Task: // lookup %Inh for Cc1ccc(S(=O)(=O)Nc2ccc(Nc3nccc(Nc4cccc5[nH]ncc45)n3)cc2)cc1 [GSK581271]
Result: 46%

Task: For Cc1cccc(Nc2nc(N[C@H]3CCNC3)ncc2C(N)=O)c1.Cl [GSK2197149] , what is its reported %Inh?
Result: 43%

Task: State the recorded %Inh for this entry: Cc1occc1-c1ncc(OC[C@@H](N)Cc2c[nH]c3ccccc23)cc1-c1ccc2[nH]nc(C)c2c1.O=C(O)C(F)(F)F [GSK682037]
Result: 71%

###

test system: ACVR2A; settings: concentration: 1 μM, replicates: in singlicate; n = 1
Recorded %Inh for the following compounds
Give just the number in %; leave the unit off.

// solved cases for %Inh follow
[
  {
    "Molecular String": "Cn1cc(-c2ccc3c(c2)CCN3C(=O)Cc2cccc(F)c2)c2c(N)ncnc21",
    "Readout Units": "%",
    "Result Number": 0
  },
  {
    "Molecular String": "CC(=O)N1CCN(c2ccc(Nc3nccc(-c4sc(C(C)C)nc4-c4cccc(NS(=O)(=O)c5cccc(Cl)c5)c4)n3)cn2)CC1",
    "Readout Units": "%",
    "Result Number": 29
  },
  {
    "Molecular String": "COC(=O)Nc1nc2cc(Oc3ccc(NC(=O)Nc4cc(C(F)(F)F)ccc4F)cn3)ccc2[nH]1.Cl.Cl",
    "Readout Units": "%",
    "Result Number": 0
  },
  {
    "Molecular String": "COC(=O)Nc1nc2ccc(Oc3ccc(NC(=O)Nc4cc(C(F)(F)F)ccc4F)cc3)cc2n1C.Cl",
    "Readout Units": "%",
    "Result Number": 0
  }
]

Kindly consider the entry below.
Task: For ACVR2A, provide %Inh of `COc1cc(Nc2ncc3c(C)nc(-c4cc5ccccc5[nH]4)n3n2)cc(OC)c1OC` please.
Result: 9

###

test system: ASK2; construct: gene MAP3K6; details: concentration: 1 μM, replicates: in singlicate; n = 1
Reported %Inh is given for each of the following molecules.
Give just the numeric value; % need not be written.

Answered cases to consult:
[
  {
    "Molecule": "Cl.Cl.NCC(C(=O)Nc1cc(Br)c(-c2ccnc3[nH]ccc23)s1)c1ccccc1 (stereo not shown)",
    "Readout Units": "%",
    "%Inh": 26
  },
  {
    "Molecule": "O=C(Nc1cccc(-c2nn3ccccc3c2-c2ccnc(Nc3cccc(F)c3)n2)c1)c1c(F)ccc(F)c1Cl",
    "Readout Units": "%",
    "%Inh": 6
  },
  {
    "Molecule": "COC(=O)Nc1nc2cc(Oc3ccc(NC(=O)Nc4cc(C(F)(F)F)ccc4F)cn3)ccc2[nH]1.Cl.Cl",
    "Readout Units": "%",
    "%Inh": 0
  }
]

Could you now look at the following molecule, please?
Task: May I ask what %Inh has been recorded for `c1ccc(Oc2ccc(Nc3ccnc4cc(-c5ccc(CNCCN6CCOCC6)o5)ccc34)cc2)nc1` ?
Result: 0

###

Recorded %Inh, one value per entry.
tested on: SRC; conditions: concentration: 1 μM, replicates: in singlicate; n = 1
# number only, unit % dropped from output

Here's what some known entries look like.
[
  {
    "Compound": "C[C@@H](Oc1cc(-n2cnc3cc(-c4ccnc(NCCS(C)(=O)=O)c4)ccc32)sc1C(N)=O)c1ccccc1Cl",
    "Parameter": "%Inh",
    "Result Number": 48
  },
  {
    "Compound": "COc1cccc(-c2ccc3c(NC(=O)C4CC4)n[nH]c3n2)c1",
    "Parameter": "%Inh",
    "Result Number": 0
  },
  {
    "Compound": "Cc1cccc(Nc2nc(N[C@H]3CCNC3)ncc2C(N)=O)c1.Cl",
    "Parameter": "%Inh",
    "Result Number": 85
  }
]

Task: Item under review: `CCCCc1nn2ncccc2c1-c1ccnc(Nc2ccc(N3CCN(C)CC3)cc2)n1` . Reported %Inh?
Result: 98.8

Task: %Inh lookup needed for `FC(F)(F)c1ccc(/C=C/c2cncnc2Nc2ccc3[nH]c(Cc4ccccc4)nc3c2)cc1` , thanks.
Result: 1

Task: Please report the recorded %Inh for `COc1ccc(CNC(=O)NC2CCN(c3ccnc(Nc4ccc(F)cc4)n3)CC2)cc1` .
Result: 0

Task: For the compound shown here, `Cn1cc(-c2ccc3c(c2)CCN3C(=O)Cc2cccc(Cl)c2)c2c(N)ncnc21` , give the reported %Inh.
Result: 21

Task: Need %Inh of `COC(=O)Nc1nc2ccc(Oc3ccc(NC(=O)Nc4cc(C(F)(F)F)ccc4F)cc3)cc2n1C.Cl` , thanks.
Result: 0

Task: Need %Inh, item `CN(C)S(=O)(=O)c1cc(-c2ccc3nccc(-c4cccc(S(N)(=O)=O)c4)c3c2)cnc1N`
Result: 0

Task: Need %Inh, item `CCn1c(-c2nonc2N)nc2c(C#CC(C)(C)O)ncc(OCCCCN)c21.O=C(O)C(F)(F)F.O=C(O)C(F)(F)F`
Result: 0

Task: I have this compound here, `c1ccc(-c2cnc3nccnn23)cc1` , and I need its recorded %Inh.
Result: 0

Task: Dear colleague, I am looking for the recorded %Inh of the following compound: COc1ccc(Nc2nccc(N3CCC(NC(=O)Nc4cccc(OC)c4)C3)n2)cc1 (centres unmarked)
Result: 5

Task: Returns the measured %Inh for the input compound. Input: `CCc1ccc(-c2ccc3c(c2)-c2c(cnn2C)S(=O)(=O)N3C)cc1`
Result: 0

Task: Need %Inh, item `O=C(Nc1cccc(Oc2ccc3nc(NC(=O)C4CC4)cn3n2)c1)c1ccccc1C(F)(F)F`
Result: 5

Task: Which %Inh reading was recorded for the compound `Clc1ccc(-c2nn3ncccc3c2-c2ccnc(Nc3ccc4c(c3)OCCO4)n2)cc1` ?
Result: 44

Task: Entry under review: Cc1ccc(C)c(NC(=O)NC2CCN(c3ccnc(Nc4ccc(F)cc4)n3)C2)c1 (centres unmarked) . Reported %Inh?
Result: 0

Task: Item `O=C(Nc1ccccc1F)NC1CCN(c2ccnc(Nc3ccc(F)cc3)n2)CC1` has what recorded %Inh?
Result: 0
